tested on: S. aureus ATCC19636; assay type: cell-based, Staphylococcus aureus; conditions: S. aureus ATCC19636; 10^6 CFU/ml in 10 mM sodium phosphate, 50 mM NaCl, pH 7.2; 37°C, 3 h; plated on MH agar, zero colony; triplicate
No end group written: not given here.
# maps each entry to its MBC
Measure Name: MBC (µg/mL)

1) TVVRRRGRSPRRRTPSPRRRRSQSPRRRRSQSRESQC [147-183]    18.3
2) RRRGRSPRRRTPSPRRRRSQSPRRRRSC [150-177C]    7.1

###

tested on: S. aureus ATCC19636; format: cell-based, Staphylococcus aureus; conditions: S. aureus ATCC19636; 10^6 CFU/ml in 10 mM sodium phosphate, 50 mM NaCl, pH 7.2; 37°C, 3 h; plated on MH agar, zero colony; triplicate
No end group written: not given here.
# maps each entry to its MBC
Measure Name: MBC

1) RRRRSQSPRRRRSC [164-177C]    > 57.2 µg/mL
2) RRRGRSPRRRTPSPRRRRSC [150-171C]    > 57.2 µg/mL
3) RRRTPSPRRRRSQSPRRRRSC [157-177C]    > 57.2 µg/mL
